test: Drug uptake in rat brain at 10 mg/kg, po measured after 2 hrs by LC-MS/MS; assay type: ADME, organism-based; settings: read-out: Drug uptake
METRIC: concentration at 2 h
Please don't drop the unit; write it after the number.

Lookup result for `N#Cc1ccc(N2C3CCC2CN(C(=O)CCS(=O)(=O)c2cccc4ncsc24)C3)nc1` ; measured concentration at 2 h: 26 nM

====

assay: AUC in rat at 2 mg/kg, iv; type: ADME, organism-based; set-up: dose 2 mg/kg; conditions: in vivo
METRIC: AUC (ng·h/mL)
Could you give me the number in ng·h/mL? Just the number is fine.

The compound listed as `N#Cc1ccc(N2C3CCC2CN(C(=O)CCS(=O)(=O)c2cccc4ncsc24)C3)nc1` has a reported AUC of 100

====

assay: Metabolic stability in rat liver microsomes assessed as intrinsic clearance at 1 uM measured up to 60 mins by LC-MS/MS analysis; assay type: ADME, Microsome; conditions: read-out: CLH
METRIC: microsomal CLint at 1 µM (µL/min/mg)
Write the number in µL/min/mg without appending the unit.

GET /value?item= `N#Cc1ccc(N2C3CCC2CN(C(=O)CCS(=O)(=O)c2cccc4ncsc24)C3)nc1` &field=microsomal CLint at 1 µM returns 23

====

assay: Metabolic stability in mouse liver microsomes assessed as intrinsic clearance at 1 uM measured up to 60 mins by LC-MS/MS analysis; assay type: ADME, Microsome; details: read-out: CLH
METRIC: microsomal CLint at 1 µM
// unit must come after the numeric part

Reported microsomal CLint at 1 µM for `N#Cc1ccc(N2C3CCC2CN(C(=O)CCS(=O)(=O)c2cccc4ncsc24)C3)nc1` was 21 µL/min/mg

====

test: Half life in rat at 2 mg/kg, iv; format: ADME, organism-based; conditions: in vivo
METRIC: half-life (min)
Return type: number; implicit unit min.

Value of half-life reported for the compound `N#Cc1ccc(N2C3CCC2CN(C(=O)CCS(=O)(=O)c2cccc4ncsc24)C3)nc1` is 54

====

target: Muscarinic acetylcholine receptor M2 (Homo sapiens, UniProt P08172); assay: Displacement of [3H]NMS from human recombinant muscarinic receptor M2 expressed in CHO-K1 cell membranes assessed as inhibition constant incubated for 1 hr by Radioligand binding assay
Sequence (P08172 whole entry, looked up): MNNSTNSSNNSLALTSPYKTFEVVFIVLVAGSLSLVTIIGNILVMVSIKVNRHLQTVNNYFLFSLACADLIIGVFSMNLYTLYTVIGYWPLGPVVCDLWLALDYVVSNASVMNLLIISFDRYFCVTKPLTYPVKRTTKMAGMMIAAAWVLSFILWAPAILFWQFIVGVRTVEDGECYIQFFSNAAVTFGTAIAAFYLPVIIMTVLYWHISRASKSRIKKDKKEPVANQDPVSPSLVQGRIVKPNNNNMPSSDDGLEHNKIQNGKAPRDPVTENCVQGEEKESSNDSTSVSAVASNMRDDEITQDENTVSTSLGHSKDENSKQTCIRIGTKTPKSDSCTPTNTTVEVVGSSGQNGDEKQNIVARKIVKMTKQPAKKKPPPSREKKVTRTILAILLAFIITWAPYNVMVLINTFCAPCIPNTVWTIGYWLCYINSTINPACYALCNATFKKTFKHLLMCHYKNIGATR
METRIC: Ki (µM)
Report the value in µM with no unit label.

Noted Ki for `N#Cc1ccc(N2C3CCC2CN(C(=O)CCS(=O)(=O)c2cccc4ncsc24)C3)nc1` , tested on Muscarinic acetylcholine receptor M2 (Homo sapiens, UniProt P08172): 0.019

====

assay: Plasma protein binding in rat assessed as unbound fraction; format: ADME, cell-free
METRIC: fraction unbound

Recorded fraction unbound (molecule `N#Cc1ccc(N2C3CCC2CN(C(=O)CCS(=O)(=O)c2cccc4ncsc24)C3)nc1` ): 0.2

====

assay: Fraction unbound in rat plasma at 10 mg/kg, po measured by LC-MS/MS; type: ADME, organism-based
METRIC: fraction unbound
Field format: numeric only.

Reported fraction unbound ( `N#Cc1ccc(N2CCN(C(=O)CCS(=O)(=O)c3cccc4ncsc34)CC2)nc1` ) = 0.15

====

test: Metabolic stability in human liver microsomes assessed as intrinsic clearance at 1 uM measured up to 60 mins by LC-MS/MS analysis; assay type: ADME, Microsome; conditions: read-out: CLH
METRIC: microsomal CLint at 1 µM

microsomal CLint at 1 µM reported for this compound `N#Cc1ccc(N2C3CCC2CN(C(=O)CCS(=O)(=O)c2cccc4ncsc24)C3)nc1` : 42 µL/min/mg

Ref: ChEMBL document CHEMBL4673395
